test system: Reugeria sp. R11; assay: IC50 of Roseobacticide A against selected bacterial strains (disc diffusion / 96 well plate); type: cell-based
pIC50: −log10 of the molar value.
readout-kind: pIC50

GET /values?readout=pIC50&system=Reugeria sp. R11&item= CSc1cccc2c(-c3ccc(O)cc3)c(=O)oc-2c1 [Roseobacticide A]
< 3.80

---

tested on: Chaetoceros muelleri CCMP1318; test: Algaecidal assay, cell counts by flow cytometry and microscopy; type: cell-based; conditions: Chaetoceros muelleri CCMP1318, 24 h, flow cytometry
pIC50: −log10 of the molar value.
readout-kind: pIC50

pIC50 lookup needed for CSc1cccc2c(-c3ccc(O)cc3)c(=O)oc-2c1 [Roseobacticide A] , thanks.
< 4.46

---

tested on: Pseudoalteromonas tunicata D2; experiment: IC50 of Roseobacticide A against selected bacterial strains (disc diffusion / 96 well plate); assay type: cell-based
pIC50: −log10 of the molar value.
readout-kind: pIC50

GET /values?readout=pIC50&system=Pseudoalteromonas tunicata D2&item= CSc1cccc2c(-c3ccc(O)cc3)c(=O)oc-2c1 [Roseobacticide A]
< 3.80

---

tested on: Phaeobacter gallaeciensis BS107; assay: IC50 of Roseobacticide A against selected bacterial strains (disc diffusion / 96 well plate); type: cell-based
readout-kind: IC50

IC50 lookup needed for CSc1cccc2c(-c3ccc(O)cc3)c(=O)oc-2c1 [Roseobacticide A] , thanks.
> 160 µM
